# Target Of Assay: α2 -Adrenoceptor (Homo sapiens, UniProt P08913)
# Construct: Human platelet membranes; from tissue; host or cells: human platelet membranes
# Assay Details: α2-Adrenoceptor Binding ([3H] Rauwolscine, human platelet membranes)
# Condition Parameters: human platelet membranes, [3H] Rauwolscine 0.5-1.0 nM, 30 minutes at 30° C.; read-out: Binding Affinity Ki
pKi: −log10 of the molar value. Structures can show the parent of a compound that is named as a salt.
Could you label it Y if measured pKi is 8 or higher, and N otherwise?

Consider the worked cases shown below.
INSERT INTO assay_data (molecule, assigned_class) VALUES
  ('CCC1c2ccccc2CN1CC1=NCCN1 (stereo not drawn) [Example 2, dihydrochloride]', 'Y'),
  ('Clc1ccc(C2c3ccccc3CN2CC2=NCCN2)cc1 (stereo not drawn) [Example 6]', 'Y'),
  ('CC1c2ccc(Cl)cc2CN1CC1=NCCN1 (stereo not drawn) [Example 3, dihydrochloride]', 'Y'),
  ('COc1ccc(C2c3ccccc3CN2CC2=NCCN2)cc1 (stereo not drawn) [Example 12]', 'Y'),
  ('Clc1cccc(C2c3ccccc3CN2CC2=NCCN2)c1 (stereo not drawn) [Example 7]', 'Y'),
  ('CC(C)C1c2ccccc2CN1CC1=NCCN1 (stereo not drawn) [Example 10, dihydrochloride hemihydrate]', 'N');

Task item: Say whether CC1c2ccc(F)cc2CN1CC1=NCCN1 (stereo not drawn) [Example 5] shows pKi of 8 or more.
Reply: Y

Task item: Say whether Fc1ccc(C2c3ccccc3CN2CC2=NCCN2)cc1 (stereo not drawn) [Example 8] shows pKi of 8 or more.
Reply: Y

Task item: Say whether c1ccc(CC2c3ccccc3CN2CC2=NCCN2)cc1 (stereo not drawn) [Example 13] shows pKi of 8 or more.
Reply: N

Task item: Say whether Cc1ccc(C2c3ccccc3CN2CC2=NCCN2)cc1 (stereo not drawn) [Example 11] shows pKi of 8 or more.
Reply: N

====

# Target Of Assay: α2 -Adrenoceptor (Homo sapiens)
# Construct: Human platelet membranes; from tissue; host or cells: human platelet membranes
# Sequence (P08913 1-465): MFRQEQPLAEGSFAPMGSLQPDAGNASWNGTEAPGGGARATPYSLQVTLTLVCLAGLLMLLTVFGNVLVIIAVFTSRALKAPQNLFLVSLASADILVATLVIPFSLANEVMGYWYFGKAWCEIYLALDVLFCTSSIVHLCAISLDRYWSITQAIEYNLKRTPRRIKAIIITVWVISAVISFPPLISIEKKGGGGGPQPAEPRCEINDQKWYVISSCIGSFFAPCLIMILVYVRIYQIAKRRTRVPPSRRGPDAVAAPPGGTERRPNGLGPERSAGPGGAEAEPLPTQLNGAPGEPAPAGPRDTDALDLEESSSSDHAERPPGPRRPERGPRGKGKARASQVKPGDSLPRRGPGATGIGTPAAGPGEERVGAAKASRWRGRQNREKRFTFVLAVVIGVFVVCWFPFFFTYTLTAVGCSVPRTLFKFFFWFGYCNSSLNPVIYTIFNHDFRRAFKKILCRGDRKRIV
# Assay Details: α2-Adrenoceptor Binding ([3H] Rauwolscine, human platelet membranes)
Test Readout: Ki (nM)
# unit: nM | format: bare number

Task item: Name the recorded Ki for CC1c2ccccc2CN1CC1=NCCN1 (stereo not shown) .
Reply: 1.7

====

# System: blood glucose
# Assay Details: Reversal of Adrenaline-Exacerbated Glucose Intolerance in Mice
# Type: in vivo, CFLP female mice
# Condition Parameters: Mus musculus, 2 h; 20 μmol/kg, oral gavage; glucose 1 g/kg and adrenaline 300 μg/kg s.c. 30 min later; 0-120 min; vs water dosed control; read-out: % Reduction in area under Blood Glucose curve
Structures can show the parent of a compound that is named as a salt.
Could you label it Criterion met if measured inhibition in vivo at 20 µmol/kg is 30% or higher, and Criterion not met otherwise?

Consider the worked cases shown below.
INSERT INTO assay_data (molecule, assigned_class) VALUES
  ('c1ccc(C2c3ccccc3CN2CC2=NCCN2)cc1 (stereo not drawn)', 'Criterion met'),
  ('c1ccc(CC2c3ccccc3CN2CC2=NCCN2)cc1 (stereo not drawn)', 'Criterion not met'),
  ('Fc1ccc(C2c3ccccc3CN2CC2=NCCN2)cc1 (stereo not drawn)', 'Criterion not met'),
  ('CCC1c2ccccc2CN1CC1=NCCN1 (stereo not drawn) [Example 2, dihydrochloride]', 'Criterion not met'),
  ('CC1c2ccccc2CN1CC1=NCCN1 (stereo not drawn)', 'Criterion met');

Task item: Say whether Clc1ccc(C2c3ccccc3CN2CC2=NCCN2)cc1 (stereo not drawn) shows inhibition in vivo at 20 µmol/kg of 30% or more.
Reply: Criterion not met

Task item: Say whether Clc1cccc(C2c3ccccc3CN2CC2=NCCN2)c1 (stereo not drawn) shows inhibition in vivo at 20 µmol/kg of 30% or more.
Reply: Criterion not met

Task item: Say whether COc1ccc(C2c3ccccc3CN2CC2=NCCN2)cc1 (stereo not drawn) shows inhibition in vivo at 20 µmol/kg of 30% or more.
Reply: Criterion met

Task item: Say whether CC1c2cc(Cl)ccc2CN1CC1=NCCN1 (stereo not drawn) shows inhibition in vivo at 20 µmol/kg of 30% or more.
Reply: Criterion not met
